assay: yeast display, Sf9 membrane polyspecificity reagent, FACS + sequencing; frameworks hold sequencing errors
measurement.name: polyreactivity (PSR sort gate)

Past entries and their recorded results:
* QVQLVESGGGLVQAGGSLRLSCAASGFTFVSNAMGWYRQAPGKERELVAAISGSGGSTYYADSVKGRFTISRDNAKNTVYLQMNSLKPEDTAVYYCAKGSRSYVRKMDYWGQGTQVTVSS | low polyreactivity
* QVQLVESGGGLVQAGGSLRLSCAASGNTFFPYTMGWYRQAPGKERELVAAITWSGVSTYYADSVKGRFTISRDNAKNTVYLQMNSLKPEDTAVYYCAARGPVYVSYPRQYGYWGQGTQVTVSS | high polyreactivity
* QVHLVESGGGLVQAGGSLRLSCAASGLIFLWNAMGWYRQAPGKERELVAAISWSGGSTYYADSVKGRFTISRDNAKNTVYLQMNSLKPEDTAVYYCIRLLSLEFGFWGQGTQVTVSS | high polyreactivity
* QVQLVESGGGLVQAGGRLRISCAASGFTFEYNDMGWYRQAPGKERELVASISYDSDSTYYADSVKGRFTISRDNAKNTVYLQMNSLKPEDTAVYYCNAGSSYHEYGYWGQGTQVTVSS | high polyreactivity

Moving on to another sequence below.
For `QVQLVESGGGLVQAGGSLRLSCAASGFIFIQNDMGWYRQAPGKEREFVASISKDGGRTYYADSVKGRFTISRDNAKNTVYLQMNSLKPEDTAVYYCNTYPRGNWGNFVEQDYDYWGQGTQVTVSS` , what is its reported polyreactivity (PSR sort gate)?
low polyreactivity

---

assay: yeast display, Sf9 membrane polyspecificity reagent, FACS + sequencing; frameworks hold sequencing errors
measurement.name: polyreactivity (PSR sort gate)

* QVQLVESGGGLVHAGGSLRLSCAASGGTFSLNAMGWYRKAPGTERELVAAISKRSSTTYYADSVKGRFTISRDNAKNTVYLQMNSLKPEDTSVYYCAARVLRSRKPGRGYDYWGQGTQVTVSS | high polyreactivity
* QVQLVESGGGLVQAGGSLRLSCAASGSTFDTNAMGWYRQAPGKERELVATITSIGGSTYADSVKGRFTISRDNAKNTVYLQMNSLKPEDTAVYYCATDYVEIDYDYDYWGQGTQVTLSS | low polyreactivity
* QVQLVESGGGLVQAGGSLRLSCAASGRTFDVYAMGWDRQAPGKERELVAASTSGGSTYYADSVKGRFTISRDNAKNTVYLQMNSLKPEDTAVYYCATDVDKSLYDYWGQGTQVTVSS | low polyreactivity
* QVQLVESGGGLVQAGGSLRLSCAASGSNYYWYAMVWSRQAPGKEMELVADITTSDGRTYYADSVKGRFTISRDNAKNTVYFLMNSLKPEDTAVYYCAADPFSGYGFQYYRGLYYWGQGTQVSVSS | low polyreactivity

For the sequence `QVQLVESGGGLVQAGGSLRLSCAASGSTFSKKAMGWYRQAPGKERELVAAITGRGGNTYYADSVKGRFTLSRDNAKNTVYLQMNSLKPEDTAVYYCAASWATYWFYRKAYNYWGQGTQVTVSS` , what polyreactivity (PSR sort gate) is on record?
high polyreactivity

---

assay: yeast display, Sf9 membrane polyspecificity reagent, FACS + sequencing; frameworks hold sequencing errors
measurement.name: polyreactivity (PSR sort gate)

* QVQLVESGGGLVQAGGSLRLSCAASGITFDYNAMGWYRQAPGKERELVASINSGGNTNYADSVKGRFTISRDNAKNTVYLQMNSLKPEDTAVYYCATVSYYLYTRYDYWGQGTQVTVSS | low polyreactivity
* QVQLVESGGGLVQAGGSLRLSCAASGSIFTRNTMGWYRQAPGKDRELVAAITWIGGRTYYADSVKGRFTISRDNAKNTVYLQMNSLKPEDTAVYYCAARSDPYWWQKYYYWGQGTQVTVSS | high polyreactivity
* QVQLVESGGGLVQAGGSLRLSCAASGFIFYSYAMGWYRQAPGKERELVAAISWSGGRTYYADSVKGRFTISRDNAKNTVYLQMNSLKPEDTAVYYCNADDYSFSFTVPYYIEYDYWGQGTQVTVSS | high polyreactivity
* QVQLVESGGGLVQAGGSLRLSCAASGRIFYRYAMGWYRQAPGKERELVADITWRGGRTYYADSVKGRFTISRDNAKNTVYLQMNSLKPEDTAVYYCAATGGFYYWGQGTQVTVSS | low polyreactivity

Proceeding to the next sequence to report its polyreactivity (PSR sort gate).
Fill in: polyreactivity (PSR sort gate) of `QVHLVESGGGIVQAGVSLRLSCAASGRIFYGYTMGWYRQAPGKERELVASIDYSTGRTYYADSVKGRFTISRDNAKYTVYLQMNSLKPEDTAVYYCNADPNYSFLRYDYWGQGTQVTVSS` is ___
high polyreactivity

---

assay: yeast display, Sf9 membrane polyspecificity reagent, FACS + sequencing; frameworks hold sequencing errors
measurement.name: polyreactivity (PSR sort gate)

* QVQLVESGGGLVQAGGSLRLSCAASGFIFDYYAMGWYRQAPGKERELVAAITSRGGSTYYADSVKGRFTISRDNAKNTVYLQMNSLKPEDTAVYYCAARRRSAEYNYWGQGTQVTVSS | high polyreactivity
* QVQLVESGVGLVQAGGSLRLSCAASGRTFFNYVMGWYRPAPGKERELVAAISRSGGSTYYADSVKGRFTLSRDNAKNTVYLQMNSLKPEDTAVYYCAADKYYEYYWGQATQVTVSS | high polyreactivity

---

assay: yeast display, Sf9 membrane polyspecificity reagent, FACS + sequencing; frameworks hold sequencing errors
measurement.name: polyreactivity (PSR sort gate)

• QVQLVESCGGLVQAGGSLRLSCAASGRTFGYYAMGWYRQAPGKEREFVAAITAGGGSTYYADSVKGRFTISRDNAKNTVYLQMNSLKPEDTAVYYCAKRDYWGQGTQVTVSS = high polyreactivity
• QVQLVESGGGLVQAGGSLRLSCAASGFIFSDNAMGWYRQAPGKERELVSAITDDGDTTYYADSVKGRFTISRDNAKNTVYLQMNSLKPEDTAVYYCATEIEDDESSGPYYYVGYGYWGQGTQVTVSS = high polyreactivity
• QVQLVESGGGLVQAGGSLRLSCAASGRTFWFYSMAWYRQAPGKERELVATINYRGGTTYYADSVKGRFTISRDNAKNTVYLQMNSLKPEDTAVYYCAVRPTRTFIYDYWGQGTQVTVSS = high polyreactivity
• QVQLVESGGGLVQAGGSLRLSCAASGSIFKQYVMGWYRQAPGKEREFVARISKSGGSTYYADSVKGRFTISRDNAKNTVYLQMNSLKPEDTAVYYCAVASKQALQPWYDYWGQGTQVTVSS = high polyreactivity
• QVQLVESGGGLVQAGGSLRLSCAASGRTFWYYTMGWYRQAPGKERELVASITYRGGSTYYADSVKGRFTISRDNAKNNVYLQMNSLKPEDTAVYYCNARYKRYSYDYWGQGTQVTVSS = high polyreactivity

Could you tell me which polyreactivity (PSR sort gate) is on file for `QDQLVESGGGLVQAGGSLRLSCAASGRIFPYYAMGWYRQAPGTERELVAAINSGGSTYYADSVKGRFPISRDNAKNTVYLQMNSLKPEDTAVNYCNADVLYEDGFFWDDYWGQGTQVTVSS` ?
low polyreactivity

Recorded polyreactivity (PSR sort gate) for `QVQLVESGGGLVPAGGSLRLSCAASGRTFPYYDMGWYRQAPGKERELVAAITSGGTTNYADSVKGRFTISRDNAKNTVYLQMNSLKPEDTAVYYCAAGSPWYYFSSYGYWGQGTQVTVSS` , please?
low polyreactivity

---

assay: yeast display, Sf9 membrane polyspecificity reagent, FACS + sequencing; frameworks hold sequencing errors
measurement.name: polyreactivity (PSR sort gate)

Worked set:
* QVQLEESGGGLVQAGGSLRLSCAASGSIFYPYAMGWYRQAPGKERELVAAISGRGGNTYYADSVKGRFTISRDIAKNTVYLQMNSLKPEDSAVYDCAADRYYWSLYGYDYWGQGTQVTVSA | high polyreactivity
* QVQLVESGGGLVQAGGSLRLSCAASGFIFRLYAMGWYRQAPGKERELVAAISGRGGNTYYADSVKGRFTISRDNAKNTVYLQMNSLKPEDTAVYYCAADRPGTGYSDYDYWGQGTQVTVSS | high polyreactivity
* QVQLVESGGGLVQAGGSLRLGCAASGFTLWYYNIGWYRQAPGKERELVASISWSGGSTYYADSVKGRFTISRDNAKNTVYLQMNSLKPEDTALYYCNVQSYDRIYDYWGQGTQVTVSS | high polyreactivity
* QVQLVESGGGLVQAGGSLRLSCAASGRISVFNAMGWYRQAPGKERELVAAITSGGSTNYADSVKGRFTISRDNAKNTVYLQMNSLKPEDTAVYYCNADVYHSHEPHYDYWGQGTQVTVSS | low polyreactivity
* QVQLVESGGGLVQAGGSLRLSCAASGSTFGLYAMGWYRQAPGKERELVAAISSGGSTYYADSVKGRFTISRDNAKNTVYLQMNSLKPEDTAVYYCATGYWAYTIEYYYWGQGTQVTVSS | low polyreactivity
* QVQLVESGGRLVQAGGSLRLICAASGSIFGHYAMGWYRQAPRKEREFVAAIDWSGGSSYYADSVKGRFTISRDNAKNTVYLQMISLKPEDTAVYYCAARVRERYYWGQGTQVTVSS | high polyreactivity
* QVQLVESGGGLVQAGGSLRLSCAASGFIFGLYAMGWYRQAPGKERELVAAITWRGSTYYADSVKGRFTISRDNAKNTVYLQMNSLKPEDTAVYYCNDVRSAYILSNDYWGQGTQVTVSS | high polyreactivity
* QVQLQESGGGLVQAGGSLRQSCAASGSISATDSVGWYRQAPGKEREFVATIDGGANTNYADSVKGRFTISRDNAKNTVYLQMNSLKPEDTAVYYCAKDSQTARDFDYWGQGTQVTVSS | low polyreactivity

Would you mind telling me what polyreactivity (PSR sort gate) value was observed for `QVQLVESGGGLVQAGGSLRLSCAASGRTFSWYAMGWYRQAPGKERELVAAITRDGGNTYYADSVKGRFTISRDHAKNTVYLQMNSLKPEDTAVYYCAKRGYVNYYCGQGTQVTVSS` ?
high polyreactivity

Field request: polyreactivity (PSR sort gate) | item: `QVQLVESGGGLVQAGGSLRLSCAASGSTFGTYAMGWYRQAPGKERELVAAISRRGGSTYYADSVKGRFTISRDNAKNTVYLQMNSLKPEDTAVDYCAARNFHPDDNYWGQGTQVTVSS`
high polyreactivity

# get_value(readout='polyreactivity (PSR sort gate)', item= `QVQLVESGGGLVQAGGSLRLSCAASGSTFAINAMGWYRQAPGTERELVAAIRYSTGRTYYADSVKGRFTISRDNAKNTVYLQMNSLKPEDTAVYYCAALGFTKYGSRFDYWGQGTQVTVSS` )
high polyreactivity

Which value of polyreactivity (PSR sort gate) has been reported for `QVQLVESGGGLVQAGGSLRLSCAASGRILRTYAMGWYRQAPGKERELVAAITRGGSTYYADSVKGRFTISRDNAKNTVYLQMNSLKPEDTAVYYCNKYKSPYITLSQYGYWGQGTQVTVSS` in the records?
high polyreactivity

Entry `QVQLVESGVGLVQAGGSLRLSCAASGSIFDANTMGWYRQAPGKERELVAAITGSGASTYYADSVKGRFTISRDNAKNTVYLQMNSLKPEDSAVYYCAARRYTSYYKDGWYAYYYWGQGTQVTVSS` has what polyreactivity (PSR sort gate)?
high polyreactivity

Could you share which polyreactivity (PSR sort gate) value was measured for `QVQLVESGGGLVQAGGSLRLSCAASGSIFRYYAMGWYRQAPGKERELVAAISWSVGGTYYADSVKGRFTISRDNAKNTVYLQMNSLKPEDTAVYYCAADVLYTQYGYWGQGTQVTVSS` ?
low polyreactivity
